Biological target: T1, human GIP receptor (human, UniProt P48546 22-466)
T1 sequence (looked up): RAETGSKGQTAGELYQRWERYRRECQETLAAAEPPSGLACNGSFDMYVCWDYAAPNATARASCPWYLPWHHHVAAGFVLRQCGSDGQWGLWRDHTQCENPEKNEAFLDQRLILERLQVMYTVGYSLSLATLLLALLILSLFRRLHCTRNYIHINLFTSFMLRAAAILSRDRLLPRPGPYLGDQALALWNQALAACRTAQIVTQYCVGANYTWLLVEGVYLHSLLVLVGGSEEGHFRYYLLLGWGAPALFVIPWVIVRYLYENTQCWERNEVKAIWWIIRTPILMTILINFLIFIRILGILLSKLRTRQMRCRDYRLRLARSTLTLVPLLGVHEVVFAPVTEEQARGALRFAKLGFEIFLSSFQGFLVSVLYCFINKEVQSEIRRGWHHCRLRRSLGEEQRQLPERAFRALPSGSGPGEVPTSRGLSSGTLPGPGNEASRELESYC
Assay: cell-based or functional assay
*1 amine or outer side, *2 acyl side, *3 side chain or, on linkers, in order; H or OH if unused. Where no end group is shown, it is not given here. Side-chain parts run from the residue outwards. [ ]: non-standard residue; d: D form. The star is where a group is joined. αMePhe(2-F) = C[C@](N)(Cc1ccccc1F)C(=O)O; γGlu = O=C(O)[C@H](CCC(=O)[*:2])N[*:1]; αMeY = C[C@](N)(Cc1ccc(O)cc1)C(=O)O; 4Pal = N[C@@H](Cc1ccncc1)C(=O)O; αMeL = CC(C)C[C@](C)(N)C(=O)O; Lauroyl = CCCCCCCCCCCC(=O)*; Orn = NCCC[C@H](N)C(=O)O; AEEA = NCCOCCOCC(=O)O; Aib = CC(C)(N)C(=O)O
The label is true for cAMP EC50 (1.0% HSA) below 0.3 nM and false for cAMP EC50 (1.0% HSA) equal to or exceeding 0.3 nM.

Q: Dear reviewer, please state whether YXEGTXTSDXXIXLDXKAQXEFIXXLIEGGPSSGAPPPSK (Y-Aib-EGT-αMeF(2F)-TSD-4Pal-Aib-I-αMeL-LD-Orn-K((2-[2-(2-Amino-ethoxy)-ethoxy]-acetyl)3-(γ-Glu)-CO-(CH2)10-CH3)AQ-Aib-EFI-(D-Glu)-αMeY-LIEGGPSSGAPPPSK((2-[2-(2-Amino-ethoxy)-ethoxy]-acetyl)3-(γ-Glu)-CO-(CH2)10-CH3)-NH2) [Example 424] has cAMP EC50 (1.0% HSA) strictly beneath 0.3 nM.
A: true

Q: Similarly, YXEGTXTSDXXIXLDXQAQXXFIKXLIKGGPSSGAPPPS (not fully specified; Y-Aib-EGT-αMeF(2F)-TSD-4Pal-Aib-I-αMeL-LD-Orn-QAQ-Aib-Orn-FIK(Ahx-(2-[2-(2-Amino-ethoxy)-ethoxy]-acetyl)-(γ-Glu)-CO-(CH2)12-CO2)-αMeY-LIK(Ahx-(2-[2-(2-Amino-ethoxy)-ethoxy]-acetyl)-(γ-Glu)-CO-(CH2)12-CO2)GGPSSGAPPPS-NH2) [Example 451] ?
A: false

Q: Similarly, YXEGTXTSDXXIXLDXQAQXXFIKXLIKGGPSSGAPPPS (Y-Aib-EGT-αMeF(2F)-TSD-4Pal-Aib-I-αMeL-LD-Orn-QAQ-Aib-Orn-FIK((2-[2-(2-Amino-ethoxy)-ethoxy]-acetyl)2-(γ-Glu)-CO-(CH2)12-CO2H)-αMeY-LIK((2-[2-(2-Amino-ethoxy)-ethoxy]-acetyl)2-(γ-Glu)-CO-(CH2)12-CO2H)GGPSSGAPPPS-NH2) [Example 391] ?
A: true

Q: Similarly, Y[Aib]EGT[αMePhe(2-F)]TSDK([AEEA-AEEA-γGlu-Lauroyl])[Aib]I[αMeL]LD[Orn]K([AEEA-AEEA-γGlu-Lauroyl])AQ[Aib][4Pal]FI[dE][αMeY]LIEGGPSSGAPPPS-NH2 [Example 415] ?
A: false

Q: Similarly, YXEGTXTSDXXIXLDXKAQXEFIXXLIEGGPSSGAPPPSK (Y-Aib-EGT-αMeF(2F)-TSD-4Pal-Aib-I-αMeL-LD-Orn-K((2-[2-(2-Amino-ethoxy)-ethoxy]-acetyl)-(y-Glu)-(10-(4-carboxyphenoxy)decanoyl))AQ-Aib-EFI-(D-Glu)-αMeY-LIEGGPSSGAPPPSK((2-[2-(2-Amino-ethoxy)-ethoxy]-acetyl)-(γ-Glu)-(10-(4-carboxyphenoxy)decanoyl))-NH2) [Example 362] ?
A: false

Ref: patent US20230265151A1
